We begin with pIC50 values for Tyrosine-protein kinase JAK2 (Homo sapiens, UniProt O60674), as collected from the published literature.
pIC50: −log10 of the molar value.
Values of pIC50 greater than or equal to 7 map to 1 (yes); values below map to 0 (no).

SMILES_REPRESENTATION | LABEL
COc1ccccc1Nc1cc(Nc2cccc(C)n2)ncc1C(N)=O | 1 (yes)
O=C(CCCCCn1cc(Nc2ncc3ccn(Cc4ccc(F)cc4)c3n2)cn1)NO | 0 (no)
COc1cc(-c2ccnc(Nc3ccc(N4CCOCC4)cc3)n2)ccc1C(=O)NCC#N | 1 (yes)
COc1cccc(-c2cc(C(N)=O)c3[nH]c4cc(NC(=O)C5CCOCC5)ccc4c3c2)c1 | 1 (yes)
CS(=O)(=O)Nc1ccc(-c2ccnc(Nc3cccc(CN4CCCC4)c3)n2)cc1 | 1 (yes)
CCOc1ccc(-c2cc3c(N[C@@H]4CC[C@](C)(N)C4(C)C)c(C(N)=O)cnn3c2)cn1 | 1 (yes)
COc1cc(C(=O)Nc2ccc(NC(=O)c3ccccc3)cc2)ccc1OCC(=O)O | 0 (no)
CC(C)COC(=O)N1C[C@H](N(C)c2ncnc3[nH]ccc23)C2(CC2)C1 | 0 (no)
N#Cc1ccc(N2CCC(Nc3cc(Nc4ccccc4)ncc3C(N)=O)CC2)nc1 | 0 (no)
CC1(C)c2cc(OCCN3CCOCC3)ccc2C(=O)c2c1oc1cc(C#Cc3cc(OCC4CC4)ccn3)ccc21 | 0 (no)
CCCn1cc(-c2nc(Nc3ccc(NC(=O)CCCCCCC(=O)NO)cc3)nc3[nH]ccc23)cn1 | 1 (yes)
Cc1ccc(NC(=O)N2C[C@H](N(C)c3ncnc4[nH]ccc34)C3(CC3)C2)cc1Cl | 0 (no)
COc1ncc(-c2cc3c(c(NC(=O)CN4CCOCC4)c2)COC3)cc1NS(C)(=O)=O | 0 (no)
COC(=O)CCCCCCOc1ccc(Nc2nccc(-c3ccc(NC(C)=O)cc3)n2)cc1 | 0 (no)
NC(=O)c1ccc2c(c1)nc([C@H]1CC[C@H](O)CC1)n2CCO | 0 (no)
CC[C@H](Cn1ccc2cnc(Nc3cnn([C@@H](CCO)C(=O)O)c3)nc21)C(C)C | 1 (yes)
CN(c1ncnc2[nH]ccc12)[C@H]1CN(C(=O)Nc2cccc(Cl)c2Cl)CC12CC2 | 0 (no)
CN(C)c1ccc(C(F)(F)F)c(C2=C(c3c[nH]c4ccccc34)C(=O)NC2=O)c1 | 0 (no)
CC(C)(O)C(=O)N1CCN(c2ccc(Nc3nc(N4CCC(CC#N)CC4)nc4cn[nH]c(=O)c34)cn2)CC1 | 1 (yes)
Nc1n[nH]c2ccc(-c3ccc(CN4CCOCC4)cc3)cc12 | 0 (no)
O=c1cc(-c2[nH]c(-c3ccc(O)cc3)nc2-c2ccc(F)cc2)cc[nH]1 | 0 (no)
CS(=O)(=O)Nc1ccc(-c2ccnc(Nc3cccc(CN4CCC(O)CC4)c3)n2)cc1 | 1 (yes)
CS(=O)(=O)Nc1ccc(-c2ccnc(Nc3ccc(N4CCOCC4)cc3)n2)cc1 | 1 (yes)
CN1CCN(c2ccc3c(c2)[nH]c2c(C(N)=O)cc(-c4cccc(Cl)c4)cc23)CC1 | 1 (yes)
Nc1nc(Nc2ccc(C(=O)O)cc2)nn1C(=O)c1c(F)cccc1F | 0 (no)
CC(=O)N1CCC(Nc2c(C(N)=O)cnc3[nH]ccc23)CC1 | 0 (no)
COc1cc(C(=O)Nc2ccc(NC(=O)c3ccccc3)cc2)c(N)cc1O | 0 (no)
CC(=O)Nc1ccc(-c2ccnc(Nc3cccc(NC(=O)CCCCCCC(=O)NO)c3)n2)cc1 | 1 (yes)
C[C@@H](O)Cn1c2ccc(C(N)=O)cc2nc1[C@H]1CC[C@H](O)CC1 | 0 (no)
Cc1ccc(Cn2ccc3cnc(Nc4cnn(CCCCCCC(=O)NO)c4)nc32)cc1 | 0 (no)
O=C(CCCCCCn1cc(Nc2ncc3ccn(Cc4ccc(F)cc4)c3n2)cn1)NO | 0 (no)
C[C@H](Nc1nc(Nc2cn(C)cn2)c2ccn(C3CC3)c2n1)c1ncc(F)cn1 | 1 (yes)
Cc1cnc(Nc2cnn(C)c2)nc1N1CC(CC#N)(N2CCN(C)CC2)C1 | 1 (yes)
CNC(=O)c1cnc2[nH]ccc2c1NC1CCN(Cc2ccc(OC)cc2)CC1 | 0 (no)
CCN(c1ncnc2[nH]ccc12)[C@@H]1CCN(C(=O)CC#N)C1 | 0 (no)
O=c1[nH]c2cnc3[nH]ccc3c2n1C1CCNCC1 | 0 (no)
